System: LLC-PK1
experimental.conditions: pig, llc-pk1, 3 h; at 1 µg/mL
metric: permeability (%)

Please tell me: permeability of CCN/C(=N\S(=O)(=O)c1ccc(N)cc1)N1CC(CC)C=N1 (centres undefined) , system LLC-PK1? 31.6

(1) CCN/C(=N\S(=O)(=O)c1ccc(N)cc1)N1CC2(C=N1)CCNCC2
(2) CCN/C(=N\S(=O)(=O)c1ccc(OC)cc1)N1CC2(C=N1)CCCC2
Would you mind telling me which has the lower recorded permeability between 1 and 2 ? Returns: label corresponding to the selected item. 1
(1: 0.3%, 2: 40.4%)
